Tested on: MDA-MB-231 breast
Test: NCI tumour cell line growth inhibition, 48 h
Kindly supply the reported TGI values for the records listed here.

Problem: Reported TGI for CC(C)CCCC(C)[C@H]1CC[C@H]2[C@@H]3CC[C@H]4C[C@@H](CCC=C(c5cc(Cl)c(O)c(C(=O)OC(C)(C)C)c5)c5cc(Cl)c(O)c(C(=O)OC(C)(C)C)c5)CC[C@]4(C)[C@H]3CC[C@]12C (stereo not given in full) : what is it?
Solution: > 50 µM

Problem: Find the recorded TGI belonging to CC(C)(C)NC(NC(C)(C)C)=C(C(Cl)=C(Cl)Cl)[N+](=O)[O-] and report it.
Solution: > 100 µM

Problem: Which value of TGI has been reported for Cc1ccc(C(=O)CC(Cl)=C(Cl)Cl)cc1 in the records?
Solution: > 100 µM

Problem: Look up TGI for this molecule: Cc1ccc(/C=C2\NC(=S)N(CN3CCOCC3)C2=O)cc1
Solution: > 100 µM

Problem: Which TGI reading was recorded for the molecule CC1(C)OCC2OC3([C@H](O)CCO)OC(C)(C)OC3C2O1 (stereo not given in full) ?
Solution: > 100 µM

* * *

Test system: UACC-257 melanoma
Test: NCI tumour cell line growth inhibition, 48 h; in the data active means GI50 below about 0.43 µM; inactive means the rest
Respond with a class label; see active, inactive

Problem: Hi, sorry to bother you, what did the test record for Nc1c(C(=O)c2cccc(OCCN3CCOCC3)c2)cnn1-c1ccc(F)cc1 ?
Solution: inactive

Problem: Please let me know the test result on file for C/C=C(\C)C(=O)O[C@@H]1C(O)[C@H]2OC(COC(=O)CCC(=O)CCCCCC[C@H](CCCCC)O[C@@H]3OC(C)[C@H](OC(C)=O)C(O)[C@H]3O2)[C@H]1OC(=O)/C=C/c1ccccc1 (stereo not given in full) .
Solution: active

Problem: Called result for COc1c2ccccc2c(O)c2c(=O)c(C(=O)O)cn(C)c12
Solution: inactive

Problem: // outcome(item) with item = O=C1C(Cl)=C(Nc2ccc3cn[nH]c3c2)C(=O)c2ccccc21
Solution: inactive

Problem: For COc1cc2c3c(n(CCCN)c(=O)c2cc1OC)-c1ccc(F)cc1C3=O , which call appears in the assay record?
Solution: inactive

Problem: Which outcome was entered for the molecule O=C(Oc1ccc([N+](=O)[O-])cc1)N1CCN(Cc2cccc(Oc3ccccc3)c2)CC1 in this test?
Solution: inactive

Problem: Answer briefly: the call reported for COC(=O)c1c2c(c(C)[n+]([O-])c1C)C(=O)C=C(NCc1cccc(OC)c1)C2=O in this assay.
Solution: active

Problem: Please let me know the test result on file for COc1ccc2cc(C(=O)/C=C/c3cccc(Cl)c3Cl)ccc2c1 .
Solution: inactive

Problem: Please state the recorded outcome for this molecule: Nc1ccn([C@H]2C[C@@H](O)[C@@H](CO)S2)c(=O)n1
Solution: inactive

Problem: Give the logged outcome of this assay for the following molecule: COC(=O)[C@]12CC[C@@H](C)[C@H](C)[C@@H]1C1=CC[C@@H]3[C@@]4(C)C(C=O)=C[C@@](C)(COC(C)=O)[C@@H]4[C@H](O)C[C@@]3(C)[C@]1(C)CC2
Solution: inactive

* * *

System: MOLT-4 leukemia
Test: NCI tumour cell line growth inhibition, 48 h; in the data active = GI50 below about 0.43 µM; inactive = the rest
In this exercise, the only acceptable responses are Yes for active, No for inactive

Problem: Kindly provide the recorded test outcome for the following compound: CCOC(=O)/C=C1\SC(=Nc2ccc(C#N)cc2)N(CCN2C(=O)/C(=C/C(=O)OCC)SC2=Nc2ccc(C#N)cc2)C1=O
Solution: No

Problem: Identify the outcome logged in this assay for the compound shown: COc1cc2c3c(n(CCN)c(=O)c2cc1OC)-c1cc2c(cc1C3=O)OCO2
Solution: Yes

Problem: # lookup: test call for COc1c2ccccc2c(O)c2c(=O)c(C(=O)O)cn(C)c12
Solution: No

Problem: Record request — test call for CC[N+](CC)=c1ccc2nc3c(cc(NCc4ccccc4)c4ccccc43)oc-2c1
Solution: Yes

Problem: Each compound tested received a call. Report the one for CC(CN)[C@@H]1CC[C@]2(CO)CC[C@]3(C)[C@H](CC[C@@H]4[C@@]5(C)CCC(NCCO)C(C)(C)[C@@H]5CC[C@]43C)[C@@H]12 (stereo partly drawn) .
Solution: No

Problem: Assay result, entry COc1cc(/C=C/C(=O)c2cc(F)c(Cl)cc2Cl)cc(OC)c1OC — outcome?
Solution: No

Problem: Check the results log: what was the call for COC(=O)c1c2c(c(C)[n+]([O-])c1C)C(=O)C=C(NCc1cccc(OC)c1)C2=O ?
Solution: No

Problem: So what was the verdict on COc1cccc(/C=C/C(=O)c2ccc(Cl)cc2Cl)c1OC in this test?
Solution: No

Problem: Would you mind telling me which call this test gave COc1cc(NN=C(c2ccc(O)cc2)c2ccc(O)cc2)c([N+](=O)[O-])cc1[N+](=O)[O-] ?
Solution: No

Problem: Test call, this compound: CCCCCCCCOc1ccc(/C=N/Nc2cc(C)nc3ccc(Cl)cc23)cc1
Solution: No

Problem: Please state the recorded outcome for this compound: O=C1/C(=C/c2ccccc2)SC(=Nc2ccccc2)N1Nc1ccccc1
Solution: No

Problem: Write down the call the test reported for this compound. Item: C=C(CN1CCN(c2cccc(C(F)(F)F)c2)CC1)c1ccc(C(=O)Nc2ccccc2N)cc1
Solution: Yes

Problem: // outcome(item) with item = COc1ccc2cc(C(=O)/C=C/c3cccc(Cl)c3Cl)ccc2c1
Solution: No
